Provide the recorded The Percentage of Triglyceride Increased in 3T3-L1 Cells for the entries that follow.
# Test system: 3T3-L1 cells
# runDescription: Insulin-sensitizing activity in 3T3-L1 preadipocyte model, triglyceride accumulation as indication of cell differentiation
# Assay type: cell-based
# settings: test compound 0.1 μmol/L; with IBMX, DEX and insulin; average of 3 pores (rosiglitazone n = 22, mean ± SD)
State just the number; it will be interpreted in %.

Problem: I am curious: what The Percentage of Triglyceride Increased in 3T3-L1 Cells value has been reported for COC(=O)c1cc2ccc(OCCN(C)C(=O)OC(C)(C)C)cc2oc1=O ?
Result: 26.73

Problem: Try this compound next: CCc1ccc(CCOc2ccc3cc(C(=O)O)c(=O)oc3c2)nc1
Result: 3.67

Problem: Try this compound next: O=C(O)c1cc2ccc(OCCc3ccccc3)cc2oc1=O
Result: −1.10

Problem: Try this compound next: COC(=O)C1Cc2ccc(OCc3ccc(C(F)(F)F)cc3)cc2OC1=O (centres unmarked)
Result: −16.81

Problem: Try this compound next: COC(=O)c1cc2ccc(OCc3ccccc3)cc2oc1=O
Result: −0.43

Problem: Try this compound next: CCc1ccc(CCOc2ccc3c(c2)OC(=O)C(C(=O)OC)C3)nc1 (centres unmarked)
Result: −2.40

Problem: Try this compound next: COC(=O)C1Cc2ccc(OCCc3nc(-c4ccccc4)oc3C)cc2OC1=O (centres unmarked)
Result: 52.92

Problem: Try this compound next: O=C(O)c1cc2ccc(OCCn3ccc4ccccc43)cc2oc1=O
Result: −8.42

Problem: Try this compound next: COC(=O)C1Cc2ccc(OCCN(C)c3nc4ccccc4o3)cc2OC1=O (centres unmarked)
Result: 29.32

Problem: Try this compound next: COC(=O)c1cc2ccc(OCCc3ccccc3)cc2oc1=O
Result: −2.61

Problem: Try this compound next: COC(=O)c1cc2ccc(OCCn3ccc4ccccc43)cc2oc1=O
Result: 27.58
